- testProtocol: protein stability index of a GFP-peptide fusion (yeast GPS) (PSI 1-4); higher = more stable; sorted into four equal gates, so the index is relative within each strain
- assayContext: doa10∆
assayMetric: protein stability index

                         residuecodes              assaymetric  recordedresult
 0          FPNGFKNFENGPKKNVF [RPC34]  protein stability index            3.26
 1           ENENILIKAKNFLVFQG [SMC1]  protein stability index            1.22
 2          DPNLELDQVGVPKSIAK [RPO21]  protein stability index            3.48
 3           GSYGSLLRFNGVERLIP [PRE4]  protein stability index               2
 4          ALKNACNSIINKLGALK [RPB11]  protein stability index            2.89
 5  ELSKSRALQENGIIMNG [YMR153W/NUP53]  protein stability index            2.63
 6           TEKLKISPESVFGTLGE [SMC3]  protein stability index            1.99
 7   ENDIEIKGPEFKFSGTV [YLR335W/NUP2]  protein stability index            2.72
 8           NEVKEWAVTLDTSRPDL [DSN1]  protein stability index            2.96
 9           DLAMANSLRRVMIAEIP [RPB3]  protein stability index            1.23
10           AAIRQPTRYVLIRNVGT [POP1]  protein stability index            1.64
11           FKDVEHISFNFSMLQMA [BRR2]  protein stability index            1.76
12          ILHVRAQYCYKNGLYQE [SRP72]  protein stability index            2.86
13           SSTITGDVVLAAAYSHE [RPL5]  protein stability index            2.32
14           EKLDVSRSSVCVKAIEA [YCG1]  protein stability index            2.54
15         KAGKVAVVVRGRYAGKK [RPL27A]  protein stability index            2.19
16          QVGERIKQTFKNDLFVI [RPO21]  protein stability index            2.38
17           THRNKDGTGVRVIVAGT [FAS1]  protein stability index            2.16
18           NPDDDYGFKQEIFDVTS [FAS1]  protein stability index            3.38
19           EPLTEIKNVIVSNRVAA [RPP0]  protein stability index             1.6
20           EVSMNSIFAMGLCGAGT [RPN1]  protein stability index            1.68
21           LEQREQNENLPSDKSDS [SSN2]  protein stability index            3.16
22  KFFQKKIHLYEKKLEDY [YGL172W/NUP49]  protein stability index            2.83
23           TFENINSLFYLKWSACT [IRR1]  protein stability index            1.26
24           NTENVESVPTPANAEPQ [ITC1]  protein stability index            3.11
25           KGTNDEGTSISVHLIEC [YCS4]  protein stability index            2.78
26   IAMPKRRMAFKPFGSAK [YLR335W/NUP2]  protein stability index            2.86
27           GLNAKQLYKARMSIKLL [POP1]  protein stability index            2.13
28           EEYARRLAEFKRRKLDL [SMC4]  protein stability index            3.13
29           SKSYTPRKLVLSSGENR [SMC4]  protein stability index            1.65
